tested on: HCC-2998 colon; experiment: NCI-60 one-dose screen, 48 h; settings: 10 µM unless noted
This is part of a sample that, as a whole, favours compounds with a hit. Of some 83,000 tested, about 20% had one in any assay. Calls of active or inactive are those of the source. Rule for the calls: active = growth percent below 10; inactive = the rest.
Allowed answers: 1 for active, 0 for inactive

Study these solved cases before continuing.
O=C1C=CC(=O)N1c1ccc2c(c1)Cc1cc(F)ccc1-2    0
CC[C@@H](C(=O)[C@@H](C)[C@@H](O)[C@H](C)[C@@H]1O[C@@H]([C@@H](CC)C(=O)O)CC[C@@H]1C)[C@H]1OC2(C=C[C@@H](O)[C@]3(CC[C@@](C)([C@H]4CC[C@](O)(CC)[C@H](C)O4)O3)O2)[C@H](C)C[C@@H]1C (some centres not stated)    0

Input line: Please indicate how the test categorized "O=C1/C(=C/c2cn(-c3ccccc3)nc2-c2ccccc2)SC(=S)N1CCc1ccccc1" .
Output line: 0

Input line: Please indicate how the test categorized "COc1cccc(-c2nc3sccn3c2-c2ccnc(NCCNS(=O)(=O)c3ccccc3)c2)c1" .
Output line: 0

Input line: Please indicate how the test categorized "CC(C)C1=C[C@@]23CC[C@@H]4[C@](C)(CCC[C@@]4(C)C(=O)N4CCCNCC4)[C@H]2C[C@@H]1[C@H]1C(=O)CCC(=O)[C@H]13" .
Output line: 0

Input line: Please indicate how the test categorized "Clc1ccc2c(NCCCCNc3nc(N4CCCCC4)nc4ccccc34)ccnc2c1" .
Output line: 1

Input line: Please indicate how the test categorized "COC(=O)[C@@H]1CCCN1C(=O)[C@@H]1CCCN1C(=O)[C@H](Cc1ccccc1)NC(=S)Nc1cc(C(F)(F)F)cc(C(F)(F)F)c1" .
Output line: 0

---

test system: UO-31 renal; assay: NCI-60 one-dose screen, 48 h; conditions: 10 µM unless noted
This is part of a sample that, as a whole, favours compounds with a hit. Of some 83,000 tested, about 20% had one in any assay. Activity calls are given as the source filed them. How the source made its calls: active means growth percent below 10; inactive means the rest.
Allowed answers: True for active, False for inactive

Study these solved cases before continuing.
Cn1cc(C(=O)c2nc(-c3c[nH]c4ccc(Br)cc34)no2)c2cc(F)ccc21    False
c1ccc(-c2c(-c3ccccc3)[n+](Cc3ccc4ccccc4c3)c(-c3ccc(-c4nc5ccccc5s4)cc3)n2Cc2ccc3ccccc3c2)cc1    True
FC(F)(F)c1nc2c(NCc3ccc(-c4ccccc4)cc3)cccc2[nH]1    False
C[n+]1ccccc1/C=C/c1ccc2cccc(O)c2n1    False

Switching to the query record.
Input line: Please indicate how the test categorized "CN(C)c1ccc(NC(=O)c2ccc(/C=C/C(=O)c3ncc[nH]3)cc2)cc1" .
Output line: False

---

Consider the following compounds and their measured growth readings.
Tested on: RPMI-8226 leukemia
Experiment: NCI-60 one-dose screen, 48 h (100 = growth as untreated, 0 = no growth, -100 = all killed)
Details: 10 µM unless noted
Experimental: Growth inhibition of the RPMI-8226 human tumor cell line is measured as a screen for anti-cancer activity. Cells are grown in 96 well plates and exposed to the test compound for 48 hours. Compounds are tested at a single concentration, which is 10^-5 M for most compounds. The reported endpoint is percent growth (GI% or GIPRCNT), where numbers from 0 - 100% represent growth inhibition, and numbers from -100% - 0 represent cell death. For example, a value of 40 represents 60% growth inhibition. […]
This is part of a sample that, as a whole, favours compounds with a hit. Of some 83,000 tested, about 20% had one in any assay.
Provide the reading as a plain figure in %.

Illustrative cases are given below, each with its answer.
COc1ccc(-c2nc3ccc(-c4nc5ccc(N6CCN(c7ccccc7)CC6)cc5[nH]4)cc3[nH]2)cc1OC    -23
COc1cc2c(cc1-c1c(C)noc1C)ncc1nc(C3CCC(F)(F)CC3)n([C@H](C)COC(F)F)c12    18.5
Clc1ccc2c(NCCNc3nc(N4CCCCC4)nc4ccccc34)ccnc2c1    -41.6
Cn1cc(-c2nonc2-c2c[nH]c3ccccc23)c2cccnc21    40.8
O=C(/C=C/c1cc(CN2CCOCC2)c(O)c2ncccc12)c1cc(CN2CCOCC2)c(O)c2ncccc12    6.02

Input line: Please report the recorded growth for COc1ccc(C2C(C#N)=C(N)Oc3n[nH]c(-c4cccs4)c32)cc1I (centres undefined) .
Output line: 78.8

Input line: Please report the recorded growth for "N#Cc1c(-c2ccc(Cl)cc2)nc(NN=Cc2ccco2)nc1N1CCOCC1" .
Output line: 66.5

Input line: Please report the recorded growth for "COc1ccccc1NS(=O)(=O)c1ccc2oc(SC(C)C)nc2c1" .
Output line: 52.2

Input line: Please report the recorded growth for C/C1=C\CC[C@@]2(C)O[C@H]2[C@H]2OC(=O)C(CN3CCN(CC4C(=O)O[C@H]5[C@H]4CC/C(C)=C/CC[C@@]4(C)O[C@@H]54)CC3)[C@@H]2CC1 (some centres undefined) .
Output line: 79
